These measurements were taken from paper PMC10598209.

system_name: T1, RSM, RECQ4(348-388) (Homo sapiens, UniProt O94761)
T1 chain: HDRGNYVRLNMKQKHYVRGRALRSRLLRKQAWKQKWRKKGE
measurement_protocol: ITC; 70 mM KCl, pH 6.5, 30 C; FA: 25 mM KPO4 pH 6.5, 70 mM KCl (or 500 mM NaCl), 25 C; ITC: same low-salt buffer, 30 C; NMR dsDNA: 50 mM NaPO4 pH 6.0, 150 mM NaCl, 298 K; NMR G4: 25 mM KPO4
test_parameters: protein: recombinant; tags: N-terminal His6-TEV construct (pET-M11); label: 5' FITC (FA); intramolecular hybrid G4
observable: pKd
Note: pKd values are expressed as the negative base-10 logarithm of concentration in M.

Ask: What measured pKd goes with TTGGGTTAGGGTTAGGGTTAGGGA (structured_DNA) [HT hybrid G4] ?
Result: 6.38
